Test system: HCT116 MTAP-deleted cell lines
Assay: Cell viability assay (CellTiter-Glo, 7 days), HCT116 MTAP-deleted
Type: cell-based
Settings: Homo sapiens, HCT-116; cell viability assay, HCT116 MTAP-deleted; class symbols; read-out: CC50
Measured CC50, listed per entry.

Cc1ncn2c1c(N)nc1cnc(C(=O)N3C[C@H](C)C[C@@H]4Oc5cc(C(F)(F)F)c(F)cc5[C@@H]43)cc12
< 100 nM

Data request: // query CC50 value for entry Cc1ncn2c1c(N)nc1cnc(C(=O)N(C)C3CCc4cc(C(F)(F)F)ccc43)cc12 (stereo not shown)
Data returned: 100 to 1000 nM

Data request: How about Cc1ncn2c1c(N)nc1ccc(C(=O)N3CCC[C@@H]4Oc5cc(C(F)(F)F)ccc5[C@@H]43)cc12 ?
Data returned: < 100 nM

Data request: Now the molecule CN(C(=O)c1cc2c(cn1)nc(N)c1cncn12)[C@@H](c1ccc(C(F)(F)F)cc1Cl)C(F)F
Data returned: 100 to 1000 nM

---

Assay: PK data (IV/PO) in Sprague-Dawley rat
Format: in vivo
Conditions: Sprague-Dawley, rat, in vivo, iv, 0.33 mg/kg, IV 0.33 mg/Kg, read-out: Vss
Entries and their Vd
Write the number in L/kg without appending the unit.

Below, 4 compounds whose answers are already recorded.
Nc1nc2cnc(C(=O)N3CCC[C@@H]4Oc5cc(C(F)(F)F)cc(F)c5[C@@H]43)cc2n2cncc12 (single isomer, unassigned) [Fg-53]
2.45
Nc1nc2ccc(C(=O)N3CCC[C@@H]4Oc5cc(C(F)(F)F)ccc5[C@@H]43)cc2n2cncc12 [Ff-111]
1.29
Nc1nc2cnc(C(=O)N3CCC[C@@H]4Oc5cc(OC(F)(F)F)cc(F)c5[C@@H]43)cc2n2cncc12 (single isomer, unassigned) [Fg-55]
1.73
Cc1ncn2c1c(N)nc1cnc(C(=O)N3CCC[C@@H]4Oc5cc(C(F)(F)F)ccc5[C@@H]43)cc12 [Ff-499]
1.72

Data request: // returns reported Vd for input Cc1ncc2c(N)nc3cnc(C(=O)N4CCC[C@@H]5Oc6cc(OC(F)(F)F)ccc6[C@@H]54)cc3n12 [Ff-340]
Data returned: 3.2

---

Experiment: Pharmacokinetics in cassette in male cynomolgus monkeys for Kp measurement
Type: in vivo
Conditions: cynomolgus monkey, 0.5 mg/kg, brain Kp = [brain]/[plasma], cyno, intravenous, read-out: Cyno brain Kp
resultType: Kp
The answer should be a number; do not append a unit.

Nc1nc2cnc(C(=O)N3CCC[C@@H]4Oc5cc(C(F)(F)F)ccc5[C@@H]43)cc2n2cncc12 [Ff-110]
0.76
C[C@@H]1CN(C(=O)c2cc3c(cc2F)nc(N)c2cncn23)[C@H]2c3cc(F)c(OC(F)(F)F)cc3C[C@H]2O1 (single isomer, unassigned) [Ff-197]
1.2
Cc1ncn2c1c(N)nc1cnc(C(=O)N3CCC[C@@H]4Oc5cc(C(F)(F)F)ccc5[C@@H]43)cc12 [Ff-499]
2.4

Data request: Fill in the blank: the reported Kp of Cc1ncc2c(N)nc3cnc(C(=O)N4CCC[C@@H]5Oc6cc(OC(F)(F)F)ccc6[C@@H]54)cc3n12 [Ff-340] is ____.
Data returned: 1.1

Data request: Also, Nc1nc2ccc(C(=O)N3CCC[C@@H]4Oc5cc(C(F)(F)F)ccc5[C@@H]43)cc2n2cncc12 [Ff-111] please.
Data returned: 1.1

Data request: Now this one: Nc1nc2cnc(C(=O)N3CCC[C@@H]4Oc5cc(OC(F)(F)F)cc(F)c5[C@@H]43)cc2n2cncc12 (single isomer, unassigned) [Fg-55]
Data returned: 0.95

Data request: Again, but for Nc1nc2cnc(C(=O)N3CCC[C@@H]4Oc5cc(C(F)(F)F)cc(F)c5[C@@H]43)cc2n2cncc12 (single isomer, unassigned) [Fg-53]
Data returned: 0.99

Data request: Another compound: C[C@H]1CN(C(=O)c2cc3c(cc2F)nc(N)c2cncn23)[C@H]2c3ccc(C(F)(F)F)cc3C[C@H]2O1 (single isomer, unassigned) [Ff-81]
Data returned: 0.96

Data request: Again, but for Nc1nc2cc(F)c(C(=O)N3CCC[C@@H]4Oc5cc(C(F)(F)F)ccc5[C@@H]43)cc2n2cncc12 [Ff-104]
Data returned: 1.78
